Kindly state Skin conductance for each of the entries shown.
# Tested on: horny layer
# method-summary: Skin conductance (water content of horny layer) after two-week coating on cheeks
# Type: in vivo, women
# Set-up: key: conductance meter reading; ≤5 = severe roughness, ≥20 = no roughness
# applied-conditions: Invention Product 1: vaseline and compound 3:1 by weight; two weeks; 20° C., 40% humidity; 5 and smaller = severe roughness, 20 or greater = no substantial roughness
# respond with the number and nothing more

Consider the molecule CCCCCCCCCCCCCCCCOCC(O)CN(CCCO)C(=O)CCCCCCCCCCCCCCC (stereo not shown) . State its measured Skin conductance.
20

Consider the molecule CCCCCCCCCCCCCCCCCC(=O)N(CCCCCCO)CC(O)COCCCCCCCCCC (stereo not shown) . State its measured Skin conductance.
11

Consider the molecule CCCCCCCCCCCCCCCCOCC(O)CN(CCO[C@@H]1O[C@H](CO)[C@@H](O[C@@H]2O[C@H](CO)[C@H](O)[C@H](O)[C@H]2O)[C@H](O)[C@H]1O)C(=O)CCCCCCCCCCCCCCC (stereo partly shown) . State its measured Skin conductance.
29

Consider the molecule CCCCCCCCCCCCCCCCOCC(O)CN(C(=O)CCCCCCCCCCCCCCC)C(C)C(=O)O (stereo not shown) . State its measured Skin conductance.
13

Consider the molecule CCCCCCCCCCCCCCCCCCOCC(O)CN(CCCO)C(=O)CCCCCCCCCCCCCCCCC (stereo not shown) . State its measured Skin conductance.
23

Consider the molecule CCCCCCCCCCOCC(O)CN(CCOCCO)C(=O)CCCCCCCCC (stereo not shown) . State its measured Skin conductance.
10

Consider the molecule CCCCCCCCCCCCCCCCOCC(O)CN(C(=O)CCCCCCCCCCCCCCC)C(CC(=O)O)C(=O)O (stereo not shown) . State its measured Skin conductance.
15

Consider the molecule CCCCCCCCCCCCCCCCCCOCC(O)CN(CCOCCO)C(=O)CCCCCCCCCCCCCCCCC (stereo not shown) . State its measured Skin conductance.
23

Consider the molecule CCCCCCCCCCCCCCCCCCOCC(O)CN(CC(O)COCCCCCCCCCC)C(C)=O (stereo not shown) . State its measured Skin conductance.
12

Consider the molecule CCCCCCCCCCCCCCCCOCC(O)CN(C(=O)CCCCCCCCCCCCCCC)C(CO)C(=O)O (stereo not shown) . State its measured Skin conductance.
18

Consider the molecule CCCCCCCCCCCCCCCCCC(=O)N(CC(O)CO)CC(O)COCCCCCCCCCC (stereo not shown) . State its measured Skin conductance.
19

Consider the molecule CCCCCCCCCCCCCCCCOCC(O)CN(C(=O)CCCCCCCCCCCCCCC)C(CCSC)C(=O)O (stereo not shown) . State its measured Skin conductance.
16

Consider the molecule CCCCCCCCCCCCCCCCOCC(O)CN(CCOCCO)C(=O)CCCCCCCCCCCCCCC (stereo not shown) . State its measured Skin conductance.
20

Consider the molecule CCCCCCCCCCCCCCCCOCC(O)CN(C(=O)CCCCCCCCCCCCCCC)C(C(=O)O)C(C)C (stereo not shown) . State its measured Skin conductance.
15

Consider the molecule CCCCCCCCCCCCCCCCOCC(O)CN(CC(O)CO)C(=O)CCCCCCCCCCCCCCC (stereo not shown) . State its measured Skin conductance.
22

Consider the molecule CCCCCCCCCCCCCCCCCCOCC(O)CN(CC(=O)O)CC(O)COCCCCCCCCCC (stereo not shown) . State its measured Skin conductance.
10
